Values from patent US20260242478A1

Biological target: T1, Anti-PSMA Fab (SEQ ID NOs: 19, 20)
T1 construct: Biotinylated PSMA Fab captured on neutravidin coated plates in the phage ELISA; also called 006 PSMA Fab
Test: phage ELISA on captured PSMA Fab, wells pre-incubated with the competitor PSMA antigen
measured-attribute: Anti-PSMA Fab signal in the presence of PSMA (phage binding ELISA)

>  <binder>
IGPWCIPPWMCDHR (tested as crude clonal phage supernatant) [Phage-2071]

>  <reported>
0.0893

$$$$
>  <binder>
EHIWCKPDWMCSGF (tested as crude clonal phage supernatant) [Phage-2060]

>  <reported>
0.0871

$$$$
>  <binder>
AAKMCVPWWMCEVM (tested as crude clonal phage supernatant) [Phage-2065]

>  <reported>
0.0753

$$$$
>  <binder>
EMKWCIPAWMCQSH (tested as crude clonal phage supernatant) [Phage-2061]

>  <reported>
0.0858

$$$$
>  <binder>
PVKWCIPSWMCSVD (tested as crude clonal phage supernatant) [Phage-2067]

>  <reported>
0.0738

$$$$
>  <binder>
SEKWCIPDWMCQVW (tested as crude clonal phage supernatant) [Phage-2068]

>  <reported>
0.0929

$$$$
>  <binder>
DTMRCVPEWMCTGF (tested as crude clonal phage supernatant) [Phage-2059]

>  <reported>
0.066

$$$$
>  <binder>
YLHSCTPAWMCTGF (tested as crude clonal phage supernatant) [Phage-2064]

>  <reported>
0.0668

$$$$
>  <binder>
PIKLCTPSWMCIGF (tested as crude clonal phage supernatant) [Phage-2063]

>  <reported>
0.107

$$$$
>  <binder>
FEMWCTPSWMCDGF (tested as crude clonal phage supernatant) [Phage-2070]

>  <reported>
0.0932

$$$$
>  <binder>
EGKWCTPIWMCQGF (tested as crude clonal phage supernatant) [Phage-2062]

>  <reported>
0.143

$$$$
>  <binder>
YDHWCTPMWMCHGM (tested as crude clonal phage supernatant) [Phage-2069]

>  <reported>
0.0688

$$$$
>  <binder>
AWKSCIPSWMCEVQ (tested as crude clonal phage supernatant) [Phage-2058]

>  <reported>
0.0942

$$$$
>  <binder>
VSIMCKPMWMCSGT (tested as crude clonal phage supernatant) [Phage-2066]

>  <reported>
0.072

$$$$
>  <binder>
VEKWCTPPWMCSLF (tested as crude clonal phage supernatant) [Phage-2057]

>  <reported>
0.1

$$$$
